- Tested on: Recombinant human H-PGDS (Homo sapiens, UniProt O60760)
- Sequence (O60760 whole entry): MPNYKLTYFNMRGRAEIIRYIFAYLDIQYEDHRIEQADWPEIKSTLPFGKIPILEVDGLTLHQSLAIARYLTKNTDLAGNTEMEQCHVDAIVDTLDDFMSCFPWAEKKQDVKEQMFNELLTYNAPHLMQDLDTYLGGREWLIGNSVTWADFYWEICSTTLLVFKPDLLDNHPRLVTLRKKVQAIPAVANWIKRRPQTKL
- Assay method text: H-PGDS inhibitory activity (prostaglandin D2 production from prostaglandin H2, measured by LC-MS/MS)
- Settings: recombinant human H-PGDS 1.0 nM expressed in E. coli; prostaglandin H2 25 μM; preincubated 15 minutes on ice, reacted on ice for 1 minute; concentration that inhibits prostaglandin D2 production by 50%
Counter-ions that a name gives are not always drawn.
Could you please report measured pIC50 for the items listed next?
Remember, pIC50 is on a log scale: it is -log10 of the molar concentration.

Result for O=C(NC1CCN(C(=O)C2CC2)CC1)c1ccc(-c2nccc3occc23)c(F)c1 [Example 324] , tested on Recombinant human H-PGDS (Homo sapiens, UniProt O60760), pIC50: 8.89

The compound Cc1cc2occc2c(-c2ccc(C(=O)N[C@H]3CC[C@H](C4(O)CC4)CC3)cc2)n1 [Example 334] , tested on Recombinant human H-PGDS (Homo sapiens, UniProt O60760), showed pIC50 of 8.70

Query Cc1cc2occc2c(-c2ccc(C(=O)N[C@H]3CC[C@H](O)CC3)cc2)n1 [Example 333] on Recombinant human H-PGDS (Homo sapiens, UniProt O60760); pIC50 returned: 8.64

Readout pIC50 for Cn1nnnc1N1CC[C@H](NC(=O)c2ccc(-c3nccc4occc34)cc2)C1 [Example 231] , test system Recombinant human H-PGDS (Homo sapiens, UniProt O60760), was 8.49

The compound O=C(N[C@H]1CCN(c2ncccn2)C1)c1ccc(-c2nccc3occc23)cc1 [Example 191] on Recombinant human H-PGDS (Homo sapiens, UniProt O60760): pIC50 was 9.20

pIC50 on Recombinant human H-PGDS (Homo sapiens, UniProt O60760) for CCOC(=O)c1cnc(N2CCC(NC(=O)c3ccc(-c4nccc5occc45)cc3)CC2)o1 [Example 254] is 8.40

pIC50 of CC(=O)[C@@H]1CC[C@@H](NC(=O)c2ccc(-c3nccc4occc34)cc2)CO1 [Example 213] , assay on Recombinant human H-PGDS (Homo sapiens, UniProt O60760), is 8.37

# value of pIC50, Recombinant human H-PGDS (Homo sapiens, UniProt O60760), item CC(C)(O)[C@H]1CC[C@H](NC(=O)c2ccc(-c3nccc4occc34)c(Cl)c2)CC1 [Example 131] = 7.59

Entry CC(C)N(CCNC(=O)c1ccc(-c2nccc3sccc23)cc1)C(C)C [Example 62, dihydrochloride] , Recombinant human H-PGDS (Homo sapiens, UniProt O60760) data, pIC50 value: 7.07

For COCCCNC(=O)c1ccc(-c2nccc3occc23)cc1 [Example 79] on Recombinant human H-PGDS (Homo sapiens, UniProt O60760), measured pIC50 was 7.57

The compound O=C(NCC1CC1)c1ccc(-c2nccc3[nH]ccc23)cc1 [Example 18] on Recombinant human H-PGDS (Homo sapiens, UniProt O60760): pIC50 was 9.00

The observed pIC50 for O=C(NCc1cccc(CO)c1)c1ccc(-c2nccc3occc23)cc1 [Example 66] when tested with Recombinant human H-PGDS (Homo sapiens, UniProt O60760) stands at 8.19

Bench note, Recombinant human H-PGDS (Homo sapiens, UniProt O60760): Cn1ccnc1N1CCC(NC(=O)c2ccc(-c3nccc4occc34)cc2)CC1 [Example 251] , pIC50 reads 8.70

Per the reported Recombinant human H-PGDS (Homo sapiens, UniProt O60760) data, O=C(NCc1ccc(Cl)cc1)c1ccc(-c2nccc3occc23)cc1 [Example 70] has pIC50 of 7.92

I looked up NC(=O)c1ccnc(N2CCC(NC(=O)c3ccc(-c4nccc5occc45)cc3)CC2)n1 [Example 175] and its pIC50 for Recombinant human H-PGDS (Homo sapiens, UniProt O60760) was 8.89

Recorded pIC50 for COCCNC(=O)c1ccc(-c2nccc3[nH]ccc23)cc1 [Example 23] on Recombinant human H-PGDS (Homo sapiens, UniProt O60760) was 9.10

The value of pIC50 recorded for O=C(NC12CC3CC(CC(O)(C3)C1)C2)c1ccc(-c2nccc3occc23)cc1 [Example 271] when tested on Recombinant human H-PGDS (Homo sapiens, UniProt O60760) reads 8.92

The value of pIC50 recorded for O=C(NCc1ccncc1)c1ccc(-c2nccc3occc23)cc1 [Example 72] when tested on Recombinant human H-PGDS (Homo sapiens, UniProt O60760) reads 7.92

pIC50 value, target or system Recombinant human H-PGDS (Homo sapiens, UniProt O60760), for COCCCNC(=O)c1ccc(-c2nccc3[nH]ccc23)cc1 [Example 24] : 9.25

Reported Recombinant human H-PGDS (Homo sapiens, UniProt O60760) pIC50 for item O=C(NC1CCN(c2ncc(Br)c(=O)[nH]2)CC1)c1ccc(-c2nccc3occc23)cc1 [Example 182] was 8.64

Tested on Recombinant human H-PGDS (Homo sapiens, UniProt O60760), the item O=C(NC1CCN(c2ccc(CO)cn2)CC1)c1ccc(-c2nccc3occc23)cc1 [Example 169] showed pIC50 equal to 8.52

Recombinant human H-PGDS (Homo sapiens, UniProt O60760) pIC50 of O=C(NC12CCC(O)(CC1)CC2)c1ccc(-c2nccc3occc23)c(F)c1 [Example 345] is 8.92

Entry O=C(NC1CCN(c2ncc(Br)cn2)CC1)c1ccc(-c2nccc3occc23)cc1 [Example 154] under Recombinant human H-PGDS (Homo sapiens, UniProt O60760) had pIC50 of 8.20

Recorded pIC50 for O=C(NC1CCc2ccccc21)c1ccc(-c2nccc3occc23)cc1 (stereo not shown) [Example 97] on Recombinant human H-PGDS (Homo sapiens, UniProt O60760) was 8.55

Recorded pIC50 for CC(C)(O)[C@H]1CC[C@H](NC(=O)c2ccc(-c3nccc4occc34)c(O)c2)CC1 [Example 134] on Recombinant human H-PGDS (Homo sapiens, UniProt O60760) was 8.18

# pIC50 measured on Recombinant human H-PGDS (Homo sapiens, UniProt O60760) for item O=C(Nc1ccc(N2CCC(C(=O)N3CCOCC3)CC2)cc1)c1ccc(-c2nccc3occc23)cc1 [Example 222] = 8.64

Entry CC(C)(O)CNC(=O)c1ccc(-c2nccc3occc23)cc1 [Example 92] under Recombinant human H-PGDS (Homo sapiens, UniProt O60760) had pIC50 of 7.66

The compound CC(C)(O)[C@H]1CC[C@H](NC(=O)c2ccc(-c3nccc4occc34)cc2)CC1 [Example 124] , tested on Recombinant human H-PGDS (Homo sapiens, UniProt O60760), showed pIC50 of 8.74

# CC(C)(O)C(=O)N1CCC(NC(=O)c2ccc(-c3nccc4occc34)cc2)CC1 [Example 245] with Recombinant human H-PGDS (Homo sapiens, UniProt O60760): pIC50 is 8.85

Bench note, Recombinant human H-PGDS (Homo sapiens, UniProt O60760): entry Cc1cc2c(-c3ccc(C(=O)N[C@H]4CC[C@H](C(C)(C)O)CC4)cc3)nccc2o1 [Example 128] , its pIC50 = 8.46

pIC50 of C[C@]1(O)CC[C@H](NC(=O)c2ccc(-c3nccc4occc34)c(F)c2)CC1 [Example 346] , assay on Recombinant human H-PGDS (Homo sapiens, UniProt O60760), is 8.70

So the reported pIC50 for CC(C)(O)[C@H]1CC[C@H](NC(=O)c2ccc(-c3ncc(CO)c4occc34)cc2)CC1 [Example 135] , on Recombinant human H-PGDS (Homo sapiens, UniProt O60760), turned out to be 7.85

Here O=C(NCC1CCOCC1)c1ccc(-c2nccc3[nH]ccc23)cc1 [Example 22] was tested on Recombinant human H-PGDS (Homo sapiens, UniProt O60760), and its pIC50 came to 9.07

Per the reported Recombinant human H-PGDS (Homo sapiens, UniProt O60760) data, O=C(N[C@@H]1COCCN(c2ncccn2)C1)c1ccc(-c2nccc3occc23)cc1 [Example 224] has pIC50 of 8.74

----------
Answer each item with its documented IC50.
- Tested on: Recombinant human H-PGDS (Homo sapiens, UniProt O60760)
- Assay method text: H-PGDS inhibitory activity (prostaglandin D2 production from prostaglandin H2, measured by LC-MS/MS)
- Settings: recombinant human H-PGDS 1.0 nM expressed in E. coli; prostaglandin H2 25 μM; preincubated 15 minutes on ice, reacted on ice for 1 minute; concentration that inhibits prostaglandin D2 production by 50%
# number only, unit nM dropped from output

Record `Cc1cnc(N2CCC(NC(=O)c3ccc(-c4nccc5occc45)cc3)CC2)nc1` , field IC50: 1.6

Just so you know, measured IC50 for `O=C(NC1CCN(C(=O)CC(F)(F)F)CC1)c1ccc(-c2nccc3occc23)cc1` came out at 1.8

Please fill in: IC50 reported for `O=C(NCCCCCCO)c1ccc(-c2nccc3occc23)cc1` = 15

The recorded IC50 for entry `CCCCNC(=O)c1ccc(-c2nccc3[nH]ccc23)cc1` equals 1.4

`Cn1c(N2CCC(NC(=O)c3ccc(-c4nccc5occc45)cc3)CC2)cccc1=O` has a reported IC50 of 2.1

response.value for `COc1cc(OC)nc(N2CCC(NC(=O)c3ccc(-c4nccc5occc45)cc3)CC2)n1` (field: IC50) = 2.6

The molecule identified as `O=C(NC1CCN(C(=O)C2CC2)CC1)c1ccc(-c2nccc3occc23)cc1` registered its IC50 at 1.2

Recorded result, `N#Cc1cc(N2CCC(NC(=O)c3ccc(-c4nccc5occc45)cc3)CC2)ccn1` , IC50: 1
